Just for reference, PubChem BioAssay (NCI) is where these values come from.

# key: entry, value: TGI
system: SNB-19 CNS; assay: NCI tumour cell line growth inhibition, 48 h
Dear colleague, please return just the value in µM, with no unit written.

O=C1C=CC(=O)c2c(O)ccc(O)c21 ... 16.6

Input: State its TGI for this molecule: NCCCCCCn1c(-c2ccc(Br)cc2)csc1=Nc1ccccc1
Output: 29

Input: State its TGI for this molecule: COc1ccc(C(c2ccc(C(C)C)cc(OC)c2=O)c2ccc(C(C)C)cc(OC)c2=O)cc1
Output: 29.3

Input: State its TGI for this molecule: C=C1c2c(C)nn(-c3ccc(OC)cc3)c2N(C)C23C[C@@H]1C1(C)c4c(C)nn(-c5ccc(OC)cc5)c4N(C)C(C)(C[C@H]12)C3 (some centres undefined)
Output: 55.8
